# experimental.details: Assay for DPPH radical scavenging
# particulars: 500 μM; 30 min in the dark
Assignment: determine reported DPPH radical scavenging for the given compounds.
All answers are understood in %, so give the number only.

So, `COc1cc(/C=C2\SC(Nc3cccc4ccccc34)=NC2=O)ccc1O` ? Its DPPH radical scavenging was 62

Sure, the documented DPPH radical scavenging for `CCOc1cc(/C=C2\SC(Nc3cccc4ccccc34)=NC2=O)ccc1O` is 61

Lab note: `COc1cc(/C=C2\SC(Nc3cccc4ccccc34)=NC2=O)cc(OC)c1O` gave DPPH radical scavenging of 51

The compound listed as `O=C1N=C(Nc2cccc3ccccc23)S/C1=C\c1ccc(O)c(O)c1` has a reported DPPH radical scavenging of 77

// DPPH radical scavenging value for `CC(C)(C)c1cc(/C=C2\SC(Nc3cccc4ccccc34)=NC2=O)cc(C(C)(C)C)c1O` : 68
